Test system: Toxoplasma gondii
assay.method.text: Antiparasitic activity against Toxoplasma gondii infected in HFF cells by fluorescence based analysis
Type: functional, organism-based
The following compounds are listed with their measured log10 of IC50 values.
// stored as log10 of IC50 expressed in µM

Example results:
CCCCc1cn(Cc2ccc(Oc3ccc(Cl)cc3O)c(Cl)c2)nn1	-0.60
O=[N+]([O-])c1ccc(Oc2ccc(Cl)cc2O)c(Cl)c1	0.60
CCCc1ccc(Oc2ccc(C#N)cc2Cl)c(O)c1	0.78
CCCc1ccc(Oc2ccc(N)cc2Cl)c(O)c1	0.78
Oc1ccc(Oc2ccc(Cl)cc2O)c(Cl)c1	0.49
Oc1cc(Cl)ccc1Oc1ccc(Cn2ccnn2)cc1Cl	-0.60
CCCc1ccc(Oc2ccc([N+](=O)[O-])cc2Cl)c(O)c1	0.78

Prompt line: Recall the recorded log10 of IC50 for Oc1cc(Cl)ccc1Oc1ccc(NCc2ccccc2)cc1Cl with Toxoplasma gondii and state it.
Response line: -0.70
